# Test system: M14
# Experimental protocol: NCI tumour cell line growth inhibition, 48 h
Activity calls are given as the source filed them. Rule as the data show it: active = GI50 up to about 1.1 µM and inactive = higher.
Recorded GI50 for the following molecules

Example cases with answers are listed next.
CC1(C)C(CBr)=[N+]([O-])C(C)(C)N1O
2.37 µM (inactive)
O=C(CSCC(=O)N/N=C/c1cccc(O)c1)N/N=C/c1cccc(O)c1
> 100 µM (inactive)
O=P(O)(CCP(=O)(O)c1ccccc1)c1ccccc1
> 100 µM (inactive)
COc1ccc(/C=N/NC(=O)C2=C(N)N(c3ccccc3)C(=C(C#N)C#N)S2)cc1
> 100 µM (inactive)
O=c1c2ccccc2n2c(-c3ccccc3O)nnc2n1-c1ccccc1
> 100 µM (inactive)

Record C=C(C)[C@@H](O)[C@H](O)C[C@H](C)C1CC[C@]2(C)C1=CC[C@@H]1[C@@]3(C)CC[C@@H](OC(C)=O)C(C)(C)[C@@H]3C[C@@H](OC3OC(COC(C)=O)C(O)C(O)C3O)[C@]12C (stereo partly specified) ; system M14; GI50 = 2.72 µM (inactive)

Record NC(=O)C1CCCN1Cc1ccc2c(c1)OCO2 (stereo unspecified) ; system M14; GI50 = > 100 µM (inactive)

----------
# Test system: Malme-3M
# Experimental protocol: NCI tumour cell line growth inhibition, 48 h
Calls of active or inactive are those of the source. Cut-off read from the data, not from the text of the source: active = GI50 up to about 1.1 µM and inactive = higher.
Use one of these outcomes when replying: active, inactive

Example cases with answers are listed next.
O=C(NC(=O)c1cn(CCN2CCN(C(=O)NCCCCCCNC(=O)N3CCN(CCn4cc(C(=O)NC(=O)OCc5ccccc5)c(=O)[nH]c4=O)CC3)CC2)c(=O)[nH]c1=O)OCc1ccccc1
inactive
Nc1nc(N)nc(-c2cnc3ccccc3c2)n1
inactive
COC1=C2C[C@@H](C)C[C@@H](OC)[C@@H](O)[C@H](C)/C=C(\C)[C@@H](OC(N)=O)[C@H](OC)/C=C\C=C(/C)C(=O)NC(=CC1=O)C2=O
active
Cc1cc(=O)c2cc(/N=C/c3ccc([N+](=O)[O-])o3)ccc2o1
inactive
COc1cc2cnc3c4ccccc4ccc3c2cc1OC
inactive
CCS[C@H]1NC(=O)C1[C@H](C)O[Si](C)(C)C(C)(C)C (stereo not given in full)
inactive
NCCCNC(=O)c1csc(NC(=O)c2csc(NC(=O)CCCN)n2)n1
inactive
NC(=O)CN1C=CCC(C(N)=O)=C1 [CARICOTAMIDE]
inactive
CN(C)CCCNC(=O)c1cc(NC(=O)c2cc(NC(=O)[C@H]3C[C@@H]3C(=O)Nc3cc(C(=O)Nc4cc(C(=O)NCCCN(C)C)n(C)c4)n(C)c3)cn2C)cn1C
inactive
CCOC(=O)C(CCN1CCC2(CC1)C(=O)N(C)CN2c1ccccc1)C(=O)OCC
inactive

Enquiry: Look up the recorded call for "O=C(O)c1cccc(S(=O)(=O)NCCO)c1" in this test.
Return: inactive

Enquiry: Look up the recorded call for CC(Cn1c2c(c3cc(O)ccc31)CCc1ccc(O)cc1-2)N(C)C (stereo not given) in this test.
Return: inactive

Enquiry: Look up the recorded call for COC(=O)[C@@]12C(=O)C(C)C(=O)[C@]1(C)C(C)=C[C@H]1[C@]3(C=O)CC[C@H](OC(C)=O)C(C)(C)[C@H]3CC[C@@]12C (stereo not given in full) in this test.
Return: inactive

----------
# Test system: HOP-62
# Experimental protocol: NCI tumour cell line growth inhibition, 48 h
Calls of active or inactive are those of the source. No stated cut-off is given here; in the data, active = GI50 up to about 1.1 µM and inactive = higher.
Recorded GI50 for the following compounds

COc1ccc(CC(=O)N2CCC3(C)CC(=O)CC=C23)cc1OC (stereo not given)
93.8 µM (inactive)
O=C(c1ccccc1)c1cc(-c2ccccc2)c(-c2ccccc2)[nH]c(=O)c1=O
59.6 µM (inactive)

Record "Cc1nc(N)nc(CCC(=O)Nc2cccc(C(F)(F)F)c2)c1-c1ccc(Cl)cc1" ; system HOP-62; GI50 = > 100 µM (inactive)

Record CC1CCC(=O)C(C(=O)CC2CC(=O)N(C)C(=O)C2)C1 (stereo not given) ; system HOP-62; GI50 = > 100 µM (inactive)

Record "CCn1c(=O)c2ccccc2n2c(=O)c3cc4ccccc4cc3nc12" ; system HOP-62; GI50 = 96.8 µM (inactive)

Record C=C(C=O)CCCC(C)[C@@H]1CCC23CC12CCC1[C@@]2(C)CCC(OC(C)=O)C(C)(C)C2CC(OC2OC(COC(C)=O)C(O)C(O)C2O)[C@]13C (stereo not given in full) ; system HOP-62; GI50 = 7.87 µM (inactive)

Record "CNC(=O)c1cc2nc3ccccc3c(=O)n2c2ccccc12" ; system HOP-62; GI50 = > 10 µM (inactive)

Record "COC1=C2C[C@@H](C)C[C@@H](OC)[C@@H](O)[C@H](C)/C=C(\C)[C@@H](OC(N)=O)[C@H](OC)/C=C\C=C(/C)C(=O)NC(=CC1=O)C2=O" ; system HOP-62; GI50 = 3.38 µM (inactive)

Record CC(=O)OCC1OC(OCCCOP(=O)(OCCC#N)OCC2OC(n3cnc4c(N)ncnc43)C(OC(=O)c3ccccc3)C2OC(=O)c2ccccc2)C(OC(C)=O)C(OC(C)=O)C1OC(C)=O (stereo not given) ; system HOP-62; GI50 = > 100 µM (inactive)

Record "CNc1ccc(-c2nc3cc(C)ccc3o2)cc1" ; system HOP-62; GI50 = 19.9 µM (inactive)

Record O=C1CC2Sc3ccccc3N=C2N1c1ccc(Cl)cc1Cl (stereo not given) ; system HOP-62; GI50 = > 100 µM (inactive)

Record N#CC(C(=O)CCC(=O)Nc1cccc(C(F)(F)F)c1)c1ccccc1 (stereo not given) ; system HOP-62; GI50 = > 100 µM (inactive)

Record "C[C@H](NC1=CC(=O)C(N[C@@H](C)[C@H](O)c2ccccc2)=CC1=O)[C@H](O)c1ccccc1" ; system HOP-62; GI50 = > 100 µM (inactive)

Record "COc1ccc(C2=NN=C3C(c4ccccc4)=Nc4ccccc4N3C2)cc1" ; system HOP-62; GI50 = 14.8 µM (inactive)

Record "Cc1cc(=O)c2cc(/N=C/c3ccc([N+](=O)[O-])o3)ccc2o1" ; system HOP-62; GI50 = > 100 µM (inactive)

src = ChEMBL document CHEMBL1201862
